Give AC50 for every item shown.
Target: Cholecystokinin receptor type A (Homo sapiens, UniProt P32238); note: assay procedure not described here
Sequence (P32238 whole entry): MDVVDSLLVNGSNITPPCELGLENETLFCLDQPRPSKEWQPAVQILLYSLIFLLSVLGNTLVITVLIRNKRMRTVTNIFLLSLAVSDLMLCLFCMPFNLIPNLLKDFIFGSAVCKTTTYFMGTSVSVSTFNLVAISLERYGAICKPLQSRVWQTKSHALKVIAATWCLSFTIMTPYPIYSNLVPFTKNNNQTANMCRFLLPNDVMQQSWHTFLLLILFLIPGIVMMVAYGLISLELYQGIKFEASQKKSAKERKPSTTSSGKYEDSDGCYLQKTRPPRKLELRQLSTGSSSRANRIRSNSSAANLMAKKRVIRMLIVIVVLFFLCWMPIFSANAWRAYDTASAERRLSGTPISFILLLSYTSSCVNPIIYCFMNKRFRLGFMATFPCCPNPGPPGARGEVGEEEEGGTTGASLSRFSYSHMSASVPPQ

The examples below pair each entry with its known result.
Cc1nnc2n1-c1ccc(Cl)cc1C(c1ccccc1Cl)=NC2; > 30 µM
COc1ccccc1OCCNCC(O)c1ccc(C)c(S(N)(=O)=O)c1 (centres undefined); > 30 µM
CC[C@@H]1C(=O)OC[C@@H]1Cc1cncn1C; > 30 µM
C[C@@H]1O[C@@H](O[C@@H]2C=C3CC[C@@H]4[C@H](CC[C@]5(C)[C@@H](c6ccc(=O)oc6)CC[C@]45O)[C@@]3(C)CC2)[C@H](O)[C@H](O)[C@H]1O; > 30 µM
CCCc1nc(C(C)(C)O)c(C(=O)OCc2oc(=O)oc2C)n1Cc1ccc(-c2ccccc2-c2nnn[nH]2)cc1; > 50 µM

# batch: return AC50 for each of the 7 molecules below
1. CNC(C)CCC=C(C)C (centres undefined)
2. Cc1c(OCC(F)(F)F)ccnc1C[S+]([O-])c1nc2ccccc2[nH]1 (centres undefined)
3. CN(C)CCC(c1ccc(Cl)cc1)c1ccccn1 (centres undefined)
4. C#C[C@]1(O)CC[C@H]2[C@@H]3CCc4cc(OC5CCCC5)ccc4[C@H]3CC[C@@]21C
5. C=CCN1C[C@H](C(=O)N(CCCN(C)C)C(=O)NCC)C[C@@H]2c3cccc4[nH]cc(c34)C[C@H]21
6. NC(=O)OCC(COC(N)=O)c1ccccc1 [FELBAMATE]
7. CCC(CC)(CC(=O)Nc1cccc(/C=C/c2nc(C3CCC3)cs2)c1)C(=O)O

stdout:
1: > 30 µM; 2: > 30 µM; 3: > 30 µM; 4: > 10 µM; 5: > 10 µM; 6: > 10 µM; 7: > 30 µM

For each listed entry, give its AC50.
1. C#C[C@]1(O)CC[C@H]2[C@@H]3[C@H](C)CC4=C(CCC(=O)C4)[C@H]3CC[C@@]21C
2. CS(=O)(=O)c1ccc(C2=C(c3ccccc3)C(=O)OC2)cc1

stdout:
["> 30 µM", "> 30 µM"]

---

Biological target: Muscarinic acetylcholine receptor M3 (Homo sapiens); note: assay procedure not described here
Sequence (P20309 whole entry): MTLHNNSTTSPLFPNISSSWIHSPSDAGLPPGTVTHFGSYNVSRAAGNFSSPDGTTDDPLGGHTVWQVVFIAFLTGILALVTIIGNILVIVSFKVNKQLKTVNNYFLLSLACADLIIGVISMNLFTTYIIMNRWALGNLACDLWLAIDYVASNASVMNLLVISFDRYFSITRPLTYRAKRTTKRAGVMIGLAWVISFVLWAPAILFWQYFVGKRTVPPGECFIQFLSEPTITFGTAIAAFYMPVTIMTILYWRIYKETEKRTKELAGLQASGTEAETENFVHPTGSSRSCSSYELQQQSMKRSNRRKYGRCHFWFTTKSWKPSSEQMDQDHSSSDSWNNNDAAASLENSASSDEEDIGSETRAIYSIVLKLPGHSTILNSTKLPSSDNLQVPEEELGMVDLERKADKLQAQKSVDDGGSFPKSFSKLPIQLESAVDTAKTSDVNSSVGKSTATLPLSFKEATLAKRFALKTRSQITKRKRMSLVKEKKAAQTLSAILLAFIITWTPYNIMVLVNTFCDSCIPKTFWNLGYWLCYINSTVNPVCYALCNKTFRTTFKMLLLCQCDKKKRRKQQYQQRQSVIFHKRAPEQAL
parameter measured: AC50

Below, 5 molecules whose answers are already recorded.
CCCc1nc(C(C)(C)O)c(C(=O)OCc2oc(=O)oc2C)n1Cc1ccc(-c2ccccc2-c2nnn[nH]2)cc1; > 10 µM
O=C(O)C[C@H](O)C[C@H](O)/C=C/c1c(C2CC2)nc2ccccc2c1-c1ccc(F)cc1; > 30 µM
C=CCC1(CC(C)C)C(=O)NC(=O)NC1=O; > 30 µM
C#C[C@]1(O)CC[C@H]2[C@@H]3CCc4cc(OC5CCCC5)ccc4[C@H]3CC[C@@]21C; > 30 µM
Nc1ccn([C@H]2CC[C@@H](CO)O2)c(=O)n1; > 30 µM

// input: 2 molecules below; output: AC50 for each
1. CC(C[N+](C)(C)C)OC(N)=O (stereo not drawn)
2. COC1=C(OC)C(=O)C(C/C=C(\C)CC/C=C(\C)CC/C=C(\C)CC/C=C(\C)CC/C=C(\C)CC/C=C(\C)CC/C=C(\C)CC/C=C(\C)CC/C=C(\C)CCC=C(C)C)=C(C)C1=O

stdout:
["> 30 µM", "> 30 µM"]

Sample `N#Cc1ccc([C@H]2CCc3cncn32)c(F)c1` , system: Muscarinic acetylcholine receptor M3 (Homo sapiens). Its AC50 is > 10 µM
